Test system: menschlicher promyelocytischer Tumorzellen HL-60
Experiment: Differentiation-inducing (DI) effect on HL-60 cells
Type: cell-based
Settings: Konzentration 0.01 (head prints x10 M)
recorded metric: Differenzierte Zellen (%)

INSERT INTO assay_data (compound, reported_value) VALUES
  ('C=C1/C(=C\C=C2/CCC[C@]3(C)C([C@H](C)CC#CC(C)(C)O)=CC[C@@H]23)C[C@@H](O)C[C@@H]1O', '9%'),
  ('C=C1/C(=C\C=C2/CCC[C@]3(C)[C@@H]([C@H](C)CCCC(C)(C)O)CC[C@@H]23)C[C@@H](O)C[C@@H]1O [Verbindung X, 1,25-Dihydroxychalecalciferol, reference compound]', '3%'),
  ('C=C1/C(=C\C=C2/CCC[C@]3(C)C([C@H](C)C/C=C/C(C)(C)O)=CC[C@@H]23)C[C@@H](O)C[C@@H]1O', '3%'),
  ('C=C1/C(=C\C=C2/CCC[C@]3(C)C([C@H](C)CCCC(C)(C)O)=CC[C@@H]23)C[C@@H](O)C[C@@H]1O [Verbindung A, 1,25-Dihydroxy-16-dehydrocholecalciferol]', '3%');

---

Test system: gezüchteten menschlichen Keratinocyten
Test: Morphological differentiation of cultured human keratinocytes (cell counts by cell type)
Format: cell-based
Settings: Dosis 10⁻⁶ M
recorded metric: Anzahl Zellen (x10⁴): verhornte Plattenepithelzellen

INSERT INTO measurements (compound, reported_value) VALUES
  ('C=C1CC[C@H](O)C/C1=C/C=C1\CCC[C@]2(C)C([C@H](C)CC#CC(C)(C)O)=CC[C@@H]12 [Verbindung F]', '137±7 x10⁴'),
  ('C=C1/C(=C\C=C2/CCC[C@]3(C)C([C@H](C)CCCC(C)(C)O)=CC[C@@H]23)C[C@@H](O)C[C@@H]1O [Verbindung A, 1,25-Dihydroxy-16-dehydrocholecalciferol]', '39±2 x10⁴'),
  ('C=C1CC[C@H](O)C/C1=C/C=C1\CCC[C@]2(C)C([C@H](C)C/C=C/C(C)(C)O)=CC[C@@H]12 [Verbindung D]', '144±7 x10⁴');

---

Tested on: gezüchteten menschlichen Keratinocyten
Assay: Morphological differentiation of cultured human keratinocytes (cell counts by cell type)
Type: cell-based
Conditions: Dosis 10⁻¹⁰ M
The entries below come with measured Anzahl Zellen (x10⁴): verhornte Plattenepithelzellen values attached.
recorded metric: Anzahl Zellen (x10⁴): verhornte Plattenepithelzellen

INSERT INTO results (compound, unit_symbol, reported_value) VALUES
  ('C=C1/C(=C\C=C2/CCC[C@]3(C)C([C@H](C)CCCC(C)(C)O)=CC[C@@H]23)C[C@@H](O)C[C@@H]1O [Verbindung A, 1,25-Dihydroxy-16-dehydrocholecalciferol]', 'x10⁴', 27),
  ('C=C1CC[C@H](O)C/C1=C/C=C1\CCC[C@]2(C)C([C@H](C)C/C=C/C(C)(C)O)=CC[C@@H]12 [Verbindung D]', 'x10⁴', 104),
  ('C=C1/C(=C\C=C2/CCC[C@]3(C)C([C@H](C)CC#CC(C)(C)O)=CC[C@@H]23)C[C@@H](O)C[C@@H]1O [Verbindung E]', 'x10⁴', 114);

---

Test system: gezüchteten menschlichen Keratinocyten
Test: Morphological differentiation of cultured human keratinocytes (cell counts by cell type)
Format: cell-based
Settings: Dosis 10⁻⁶ M
recorded metric: Anzahl Zellen (x10⁴): verhornte Plattenepithelzellen

INSERT INTO results (compound, reported_value) VALUES
  ('C=C1/C(=C\C=C2/CCC[C@]3(C)C([C@H](C)CC#CC(C)(C)O)=CC[C@@H]23)C[C@@H](O)C[C@@H]1O', '147±4 x10⁴'),
  ('C=C1CC[C@H](O)C/C1=C/C=C1\CCC[C@]2(C)C([C@H](C)CCCC(C)(C)O)=CC[C@@H]12 [Verbindung B, 25-Hydroxy-16-dehydrocholecalciferol]', '33±1 x10⁴'),
  ('C=C1/C(=C\C=C2/CCC[C@]3(C)C([C@H](C)C/C=C/C(C)(C)O)=CC[C@@H]23)C[C@@H](O)C[C@@H]1O', '153±1 x10⁴');

---

Test system: menschlicher promyelocytischer Tumorzellen HL-60
Test: Antiproliferative (AP) effect on HL-60 cells
Format: cell-based
Details: Homo sapiens, concentration that reduces the cell number by 50%, read-out: ID50 (the source's name)
pIC50: −log10 of the molar value.
recorded metric: pIC50

INSERT INTO results (compound, reported_value) VALUES
  ('C=C1/C(=C\C=C2/CCC[C@]3(C)C([C@H](C)CCCC(C)(C)O)=CC[C@@H]23)C[C@@H](O)C[C@@H]1O [Verbindung A, 1,25-Dihydroxy-16-dehydrocholecalciferol]', 8.70),
  ('C=C1/C(=C\C=C2/CCC[C@]3(C)C([C@H](C)CC#CC(C)(C)O)=CC[C@@H]23)C[C@@H](O)C[C@@H]1O [Verbindung E]', 9.15),
  ('C=C1/C(=C\C=C2/CCC[C@]3(C)[C@@H]([C@H](C)CCCC(C)(C)O)CC[C@@H]23)C[C@@H](O)C[C@@H]1O [Verbindung X, 1,25-Dihydroxychalecalciferol, reference compound]', 7.70),
  ('C=C1/C(=C\C=C2/CCC[C@]3(C)C([C@H](C)C/C=C/C(C)(C)O)=CC[C@@H]23)C[C@@H](O)C[C@@H]1O [Verbindung C]', 8.52);
